- EXPERIMENTAL TARGET: UniProt P35869
- Sequence (P35869 11-848): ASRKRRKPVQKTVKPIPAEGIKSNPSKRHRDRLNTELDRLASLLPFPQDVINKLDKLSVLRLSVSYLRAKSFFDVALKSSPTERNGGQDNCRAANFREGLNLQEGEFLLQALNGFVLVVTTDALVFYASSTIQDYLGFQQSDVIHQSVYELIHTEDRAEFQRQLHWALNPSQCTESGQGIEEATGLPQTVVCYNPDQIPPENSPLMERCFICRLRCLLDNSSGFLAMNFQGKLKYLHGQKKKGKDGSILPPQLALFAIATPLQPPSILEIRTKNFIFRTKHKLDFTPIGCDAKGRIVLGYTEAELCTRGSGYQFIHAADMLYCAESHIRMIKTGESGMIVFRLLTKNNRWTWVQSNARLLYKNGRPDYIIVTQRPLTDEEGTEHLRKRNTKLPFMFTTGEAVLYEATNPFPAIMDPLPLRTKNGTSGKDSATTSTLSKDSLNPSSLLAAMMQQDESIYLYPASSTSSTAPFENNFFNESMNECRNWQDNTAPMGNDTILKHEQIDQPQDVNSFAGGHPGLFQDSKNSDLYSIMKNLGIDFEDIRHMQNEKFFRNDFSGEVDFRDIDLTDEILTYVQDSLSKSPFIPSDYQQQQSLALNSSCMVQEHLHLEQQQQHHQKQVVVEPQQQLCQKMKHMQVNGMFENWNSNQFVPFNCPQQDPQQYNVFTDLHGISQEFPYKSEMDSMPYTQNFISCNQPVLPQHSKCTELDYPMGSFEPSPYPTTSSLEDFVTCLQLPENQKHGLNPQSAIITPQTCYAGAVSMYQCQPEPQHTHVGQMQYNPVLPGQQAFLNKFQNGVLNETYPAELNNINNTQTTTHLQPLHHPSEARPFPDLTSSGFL
- ASSAY TEXT: In vitro assay 2: agonism in human cell line (transactivation assay)
- STATED CONDITIONS: read-out: Assay 2: AHR-luc Hum Agonism IC50, no kynurenic acid, 20 hours, firefly luciferase
OBSERVABLE: IC50

Some entries whose results are on file:
>>> recorded_value("O=C(NC(CO)C1CCOC1)c1cc(-c2ccc(Cl)cc2)nn(-c2cccc(F)c2)c1=O (single isomer, unassigned) [Example 40]")
"> 20 µM"
>>> recorded_value("CC(CCO)NC(=O)c1cc(-c2ccc(C(F)(F)F)cc2)nn(-c2cccc(F)c2)c1=O (single isomer, unassigned; (-))")
"> 20 µM"

Consider now this further molecule.
Given O=C(NCC(O)C(F)(F)F)c1cc(-c2ccc(OC(F)(F)F)cc2)nn(-c2cccc(F)c2)c1=O (single isomer, unassigned) , state its recorded IC50.
> 20 µM
